- Test system: MYB mRNA
- testProtocol: Splicing RT-qPCR assay, MYB canonical (CJ) and alternative (AJ) junction mRNA
- Type: cell-based, human
- measurementParameters: A673 or K562 cells, 24 hours compound treatment, RT-qPCR; read-out: MYB AJ (AC50, increase in alternative junction mRNA)
measurementLabel: AC50

>>> print(df.to_string())
                                   molecule          observed
0  CCn1cc2c(N3CC[C@@H](NC)C3)ccc(C(=O)Nc3cc(F)c4nc(C)cn4c3)c2n1 [Compound 469]        > 10000 nM
1  Cc1cn2cc(NC(=O)c3ccc(N4CCNCC4)c4cn(C)nc34)c(C#N)cc2n1 [Compound 444]    100 to 1000 nM
2  Cc1cn2cc(NC(=O)c3ccc(N4CCNCC4)c4cn(C)nc34)c(C#N)cc2n1 [Compound 452]  1000 to 10000 nM
3  CCn1cc2c(N3CC[C@@H](NC)C3)ccc(C(=O)Nc3cc(F)c4nc(C)cn4c3)c2n1 [Compound 393]    100 to 1000 nM
